Biological target: Induced myeloid leukemia cell differentiation protein Mcl-1 (Homo sapiens)
Sequence (Q07820 whole entry): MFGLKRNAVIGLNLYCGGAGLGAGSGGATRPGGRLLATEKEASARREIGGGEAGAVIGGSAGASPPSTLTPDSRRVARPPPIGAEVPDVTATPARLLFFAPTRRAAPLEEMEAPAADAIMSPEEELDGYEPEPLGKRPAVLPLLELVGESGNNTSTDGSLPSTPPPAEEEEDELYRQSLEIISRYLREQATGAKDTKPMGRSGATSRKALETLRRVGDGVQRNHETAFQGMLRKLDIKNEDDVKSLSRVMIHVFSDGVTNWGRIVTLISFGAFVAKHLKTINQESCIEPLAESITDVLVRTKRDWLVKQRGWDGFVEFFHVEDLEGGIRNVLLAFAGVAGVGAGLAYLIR
Type: functional
Active and inactive are the calls of the source.
parameter: IC50

# compound, IC50
data = [
    ("NS(=O)(=O)c1ccc(-c2ccc(/C=C3\\SC(=S)N(C4CCS(=O)(=O)C4)C3=O)o2)cc1 (stereo not given)", "1850 nM (active)"),
    ("CSc1nc(NCCOCCO)c2sc3nc(-c4ccco4)c4c(c3c2n1)CCC4", "1920 nM (active)"),
    ("O=C(NCCO)c1ccc2nc(-c3ccco3)c(-c3ccco3)nc2c1", "< 400 nM (active)"),
    ("COc1ccc(OC)c2c1C(=O)C(Cl)=C(Cl)C2=O", "24800 nM (active)"),
]

Please look at the following compound next.
**Q:** State the recorded IC50 for this entry: `Oc1ccc(/C=N/Nc2nc(-c3cccnc3)nc3ccccc23)c(O)c1`
**A:** 52800 nM (not active)
